System: 786-0 renal
Assay procedure: NCI-60 one-dose screen, 48 h (100 = growth as untreated, 0 = no growth, -100 = all killed)
Experimental context: 10 µM unless noted
This is part of a sample that, as a whole, favours compounds with a hit. Of some 83,000 tested, about 20% had one in any assay.
Kindly return t if reported growth is no lower than 90%; return f if it is lower.

For orientation, consider the following solved cases.
INSERT INTO results (compound, cat) VALUES
  ('C=C(C[n+]1ccccc1)[C@@H]1CC[C@]2(C(=O)OC)CC[C@]3(C)[C@H](CC[C@@H]4[C@@]5(C)CCC(=O)C(C)(C)[C@@H]5CC[C@]43C)[C@@H]12', 't'),
  ('CN1C(=O)N(C)C2C1NN=c1s/c(=C\c3ccc(F)cc3)c(=O)n12 (stereo unspecified)', 'f'),
  ('COc1ccc(Nc2nccc(Nc3ccc4[nH]ncc4c3)n2)cc1', 'f'),
  ('CC(=O)c1ccc(Nc2nccc(-c3ccc(Cl)cc3)n2)cc1', 't'),
  ('CCOC(=O)c1c(NC(=S)Nc2ccc([N+](=O)[O-])cc2)sc2c1CCCCC2', 't');

Q) Has `O=C1NC(=O)C(=Cc2cc(-c3ccc(Cl)cc3)n(-c3ccccc3)n2)C(=O)N1` a recorded growth greater than or equal to 90%?
A) f

Q) Has `COc1ccc(-c2ccc(-c3ccc(C(=N)N)nc3)s2)cc1` a recorded growth greater than or equal to 90%?
A) f

Q) Has `COc1cc(C)cc(-c2c(-c3cc(N4CC(O)C4)nc(-c4cccnc4)n3)cnn2C)c1` a recorded growth greater than or equal to 90%?
A) f

Q) Has `O=C(/C=C/c1ccc(Cl)cc1)c1ccc(-n2cc(CN3CCN(c4cc5c(cc4F)c(=O)c(C(=O)O)cn5C4CC4)CC3)nn2)cc1` a recorded growth greater than or equal to 90%?
A) f

---

System: K-562 leukemia
Assay procedure: NCI-60 one-dose screen, 48 h
Experimental context: 10 µM unless noted
About 83,000 compounds went through this panel and 20% of them were active in at least one assay; those are over-represented in the sample as a whole. The source made the active and inactive calls. How the source made its calls: active means growth percent below 10; inactive means the rest.
Lab note: assign the record to one of active, inactive

For orientation, consider the following solved cases.
INSERT INTO measurements (compound, system_under_test, cat) VALUES
  ('CCCCC/C=C/CCC(=O)N[C@H]1[C@H](Oc2c3cc4cc2Oc2ccc(cc2Cl)[C@@H](O[C@@H]2O[C@H](CO)[C@@H](O)[C@H](O)[C@H]2NC(C)=O)[C@@H]2NC(=O)[C@H](NC(=O)[C@@H]4NC(=O)[C@H]4NC(=O)[C@@H](Cc5ccc(c(Cl)c5)O3)NC(=O)[C@@H](N)c3ccc(O)c(c3)Oc3cc(O)cc4c3)c3ccc(O)c(c3)-c3c(O[C@H]4O[C@H](CO)[C@@H](O)[C@H](O)[C@@H]4O)cc(O)cc3[C@H](C(=O)O)NC2=O)O[C@H](CO)[C@H](O)[C@@H]1O', 'K-562 leukemia', 'inactive'),
  ('COc1cc(OCc2cccc(-c3ccc4c(c3)OCCO4)c2C)cc(OC)c1C=O', 'K-562 leukemia', 'inactive'),
  ('CN1CCN(Cc2ccc(NC(=O)c3cncc(C#Cc4c(N)ncc5ccccc45)c3)cc2C(F)(F)F)CC1', 'K-562 leukemia', 'active'),
  ('CCCCC#Cc1c(I)n(C2OC(CO[Si](C)(C)C(C)(C)C)C3OC(C)(C)OC32)c(=O)[nH]c1=O (stereo not given)', 'K-562 leukemia', 'inactive'),
  ('Cc1ccc(-c2nnc(SCc3nc(N)nc(Nc4ccccc4F)n3)n2-c2ccccc2)cc1', 'K-562 leukemia', 'inactive'),
  ('CN1CCN(Cc2ccc(NC(=O)c3cncc(C#Cc4c(N)ncc5c(F)cccc45)c3)cc2C(F)(F)F)CC1', 'K-562 leukemia', 'active'),
  ('Nc1ncc(-c2ccc3ncnc(N4CCc5cc(F)c(Cl)cc54)c3c2)cc1C=O', 'K-562 leukemia', 'inactive'),
  ('O=c1oc2ccccc2cc1-c1nn(-c2ccccc2)cc1/C=N/Nc1nc(-c2ccccc2)c(N=Nc2ccccc2)s1', 'K-562 leukemia', 'inactive');

Q) Could you please tell me the result logged for `CN(C)c1ccc(/C=C/C2=[N+](C)c3ccccc3C2(C)C)cc1` in this assay?
A) inactive

Q) Could you please tell me the result logged for `O=C1c2ccccc2-c2c1c1ccncc1c(=O)n2CCCn1ccnc1` in this assay?
A) inactive

Q) Could you please tell me the result logged for `COc1ccc(N2C(=O)/C(=C/C(Cl)=C/c3ccc([N+](=O)[O-])cc3)SC2=S)cc1` in this assay?
A) active

Q) Could you please tell me the result logged for O=C(OCC(O)C(=O)NC12CC3CC(CC(C3)C1)C2)c1cccc(Br)c1 (stereo not given) in this assay?
A) inactive

Q) Could you please tell me the result logged for `NC(=O)[C@@H]1Cc2ccccc2CN1C(=O)c1ccc2c(c1)Cc1ccccc1-2` in this assay?
A) inactive

Q) Could you please tell me the result logged for `C=CC(=O)NCc1cccc(Nc2ncc(Br)c(NCCCNC(=O)C3CCC3)n2)c1` in this assay?
A) active

Q) Could you please tell me the result logged for CCOC(=O)C1=CCC(n2cc(F)c(=O)[nH]c2=O)O1 (stereo not given) in this assay?
A) inactive

Q) Could you please tell me the result logged for `Cc1c(-c2cnc3ccc(Cl)cc3c2C(=O)O)nnn1-c1ccc(Cl)cc1` in this assay?
A) inactive

Q) Could you please tell me the result logged for `Oc1ccc(C2OCCO2)c2cccnc12` in this assay?
A) inactive

Q) Could you please tell me the result logged for `COC(=O)c1c(C(=O)OC)c2ccc3c4ncccc4ccc3n2c1C(=O)c1ccc(C)cc1` in this assay?
A) inactive

Q) Could you please tell me the result logged for `CNC(=O)c1cc(Oc2ccc3nc(NC(=O)NC(C)C)sc3c2)ccn1` in this assay?
A) active

Q) Could you please tell me the result logged for COc1ccc(C2CC(=O)Oc3c(OC)c4c(c(OC)c32)OCO4)cc1 (stereo not given) in this assay?
A) inactive
